System: LG0567-F671-PDC KRAS tumor spheroid viability
ASSAY_NAME: Anticancer human tumor LG0567-F671-PDC patient-derived lung adenocarcinoma cell line growth inhibition [KRAS2]
RUN_CONDITIONS: second compound 0.316 µM; first compound 0.1 µM; hits give low values; spheroids with HUVEC and MSC
Provide the recorded viability, T/C for the entries that follow.
Provide only the numeric value, understood in %.

[Q] Give the observed viability, T/C of CCNC(=O)CC1N=C(c2ccc(Cl)cc2)c2cc(OC)ccc2-n2c(C)nnc21 (stereo not given) + COc1cc2nc(C)nc(NC(C)c3cc(N)cc(C(F)(F)F)c3)c2cc1OC1CCOC1 for LG0567-F671-PDC KRAS tumor spheroid viability.
[A] 96.5

[Q] For LG0567-F671-PDC KRAS tumor spheroid viability, give viability, T/C of the listed compound: COC(=O)c1ccc2c(C(=Nc3ccc(N(C)C(=O)CN4CCN(C)CC4)cc3)c3ccccc3)c(O)[nH]c2c1 + C=CC(=O)N1CCN(c2nc(=O)n(-c3c(C)ccnc3C(C)C)c3nc(-c4c(O)cccc4F)c(F)cc23)C(C)C1
[A] 23.3

[Q] Give viability, T/C; test system LG0567-F671-PDC KRAS tumor spheroid viability; compound COC(=O)c1ccc2c(C(=Nc3ccc(N(C)C(=O)CN4CCN(C)CC4)cc3)c3ccccc3)c(O)[nH]c2c1 + C=CC(=O)N1CCN(c2nc(OCC3CCCN3C)nc3c2CCN(c2cccc4cccc(C)c24)C3)CC1CC#N
[A] 21.1

[Q] Recall the reported viability, T/C of CC1COCCN1c1cc(-c2ccnn2C)c2ccnc(-c3ccn[nH]3)c2n1 (stereo not given) + C=CC(=O)N1CCN(c2nc(OCC3CCCN3C)nc3c2CCN(c2cccc4cccc(C)c24)C3)CC1CC#N on LG0567-F671-PDC KRAS tumor spheroid viability and write it down.
[A] 15.6

[Q] Provide measured viability, T/C on LG0567-F671-PDC KRAS tumor spheroid viability for O=C(c1cc(Cc2n[nH]c(=O)c3ccccc23)ccc1F)N1CCN(C(=O)C2CC2)CC1 + C=CC(=O)N1CCN(c2nc(OCC3CCCN3C)nc3c2CCN(c2cccc4cccc(C)c24)C3)CC1CC#N please.
[A] 26

###

Kindly state viability, T/C for each of the entries shown.
System: LG0567-F671-PDC KRAS tumor spheroid viability
ASSAY_NAME: Anticancer human tumor LG0567-F671-PDC cell line growth inhibition [KRAS2];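 also: drug exposure lasted seven days after spheroids formed for three days; 100% = DMSO vehicle control viability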
RUN_CONDITIONS: second compound 0.1 µM; first compound 0.1 µM; hits give low values; spheroids with HUVEC and MSC
Description: Multicellular complex tumor spheroid response to RAS pathway inhibitors in combination with a targeted agents in patient-derived cell lines with oncogenic KRAS variants from multiple cancer types A high-throughput screen of multi-cell type tumor spheroids was designed to identify active combinations of targeted small molecules and KRAS pathway inhibitors. […] Compounds. […] If the clinical Cmax for an agent had not been determined, the highest concentration tested was 10 microM. […]
Return type: number; implicit unit %.

[Q] Give me measured viability, T/C, please, for this molecule: COc1cc(Nc2ncc3c(n2)-c2ccc(Cl)cc2C(c2c(F)cccc2OC)=NC3)ccc1C(=O)O + COc1cc2nc(C)nc(NC(C)c3cc(N)cc(C(F)(F)F)c3)c2cc1OC1CCOC1
[A] 59.9

[Q] Complete the entry with viability, T/C for CCN1CCN(Cc2ccc(Nc3ncc(F)c(-c4cc(F)c5nc(C)n(C(C)C)c5c4)n3)nc2)CC1 + CNCc1ccccc1-c1csc(C(C)Nc2nc(C)nc3cc(OC)c(OC)cc23)c1
[A] 62.6

[Q] Annotate the molecule COC(=O)c1ccc2c(C(=Nc3ccc(N(C)C(=O)CN4CCN(C)CC4)cc3)c3ccccc3)c(O)[nH]c2c1 + CC1OCC2(CCN(c3cnc(Sc4ccnc(N)c4Cl)c(N)n3)CC2)C1N with its measured viability, T/C.
[A] 50.5

[Q] Consider the molecule Cn1nccc1Nc1nccc(-c2cc3c(s2)C(C)(C)N(CCN2CCOCC2)C3=O)n1 + COc1cc2nc(C)nc(NC(C)c3cc(N)cc(C(F)(F)F)c3)c2cc1OC1CCOC1 . State its measured viability, T/C.
[A] 67

[Q] Return viability, T/C for the following molecule: O=C(c1cc(Cc2n[nH]c(=O)c3ccccc23)ccc1F)N1CCN(C(=O)C2CC2)CC1 + CNCc1ccccc1-c1csc(C(C)Nc2nc(C)nc3cc(OC)c(OC)cc23)c1
[A] 95.4

###

Tested on: LG0567-F671-PDC KRAS tumor spheroid viability
ASSAY_NAME: Anticancer human tumor LG0567-F671-PDC cell line growth inhibition [KRAS2];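 also: drug exposure lasted seven days after spheroids formed for three days; 100% = DMSO vehicle control viability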
RUN_CONDITIONS: second compound 10 µM; first compound 0.316 µM; hits give low values; spheroids with HUVEC and MSC
For each record, check the reported viability, T/C: if it is below 1% write yes, else write no.

[Q] Input COc1cc(Nc2ncc3c(n2)-c2ccc(Cl)cc2C(c2c(F)cccc2OC)=NC3)ccc1C(=O)O + CC1OCC2(CCN(c3cnc(Sc4ccnc(N)c4Cl)c(N)n3)CC2)C1N ; condition: viability, T/C strictly below 1%. Does it hold?
[A] no

[Q] Determine whether this compound shows viability, T/C lower than 1% (ties excluded): CC1COCCN1c1cc(-c2ccnn2C)c2ccnc(-c3ccn[nH]3)c2n1 (stereo unspecified) + COc1cc2nc(C)nc(NC(C)c3cc(N)cc(C(F)(F)F)c3)c2cc1OC1CCOC1
[A] no

[Q] Lab note: confirm whether the reported viability, T/C for this compound is below 1%, equality not counting. compound: CC(=O)OC12COC1CC(O)C1(C)C(=O)C(O)C3=C(C)C(OC(=O)C(O)C(NC(=O)OC(C)(C)C)c4ccccc4)CC(O)(C(OC(=O)c4ccccc4)C21)C3(C)C (stereo unspecified) + C=CC(=O)N1CCN(c2nc(=O)n(-c3c(C)ccnc3C(C)C)c3nc(-c4c(O)cccc4F)c(F)cc23)C(C)C1
[A] no

[Q] Consider the compound COc1cc2nccc(Oc3ccc(NC(=O)C4(C(=O)Nc5ccc(F)cc5)CC4)cc3)c2cc1OC + COc1cc2nc(C)nc(NC(C)c3cc(N)cc(C(F)(F)F)c3)c2cc1OC1CCOC1 . Is its viability, T/C strictly less than 1%?
[A] no

[Q] Problem: For the compound Cn1nccc1Nc1nccc(-c2cc3c(s2)C(C)(C)N(CCN2CCOCC2)C3=O)n1 + CNCc1ccccc1-c1csc(C(C)Nc2nc(C)nc3cc(OC)c(OC)cc23)c1 , is viability, T/C under 1%?
[A] yes

[Q] Please indicate whether the reported viability, T/C of CC1OCC2(CCN(c3cnc(Sc4ccnc(N)c4Cl)c(N)n3)CC2)C1N (stereo unspecified) + CNCc1ccccc1-c1csc(C(C)Nc2nc(C)nc3cc(OC)c(OC)cc23)c1 is strictly below 1%.
[A] yes

[Q] Threshold test, viability, T/C < 1%: CCN1CCN(Cc2ccc(Nc3ncc(F)c(-c4cc(F)c5nc(C)n(C(C)C)c5c4)n3)nc2)CC1 + CC1OCC2(CCN(c3cnc(Sc4ccnc(N)c4Cl)c(N)n3)CC2)C1N
[A] no

[Q] API: query returns whether the compound falls strictly under 1% in viability, T/C. Query: COC(=O)c1ccc2c(C(=Nc3ccc(N(C)C(=O)CN4CCN(C)CC4)cc3)c3ccccc3)c(O)[nH]c2c1 + COc1cc2nc(C)nc(NC(C)c3cc(N)cc(C(F)(F)F)c3)c2cc1OC1CCOC1
[A] no

[Q] Threshold test, viability, T/C < 1%: CCN1CCN(Cc2ccc(Nc3ncc(F)c(-c4cc(F)c5nc(C)n(C(C)C)c5c4)n3)nc2)CC1 + COc1cc2nc(C)nc(NC(C)c3cc(N)cc(C(F)(F)F)c3)c2cc1OC1CCOC1
[A] yes

[Q] Please determine if COc1cc2nccc(Oc3ccc(NC(=O)C4(C(=O)Nc5ccc(F)cc5)CC4)cc3)c2cc1OC + C=CC(=O)N1CCN(c2nc(=O)n(-c3c(C)ccnc3C(C)C)c3nc(-c4c(O)cccc4F)c(F)cc23)C(C)C1 is below 1% in terms of viability, T/C.
[A] no

[Q] Consider the compound COc1cc2nccc(Oc3ccc(NC(=O)C4(C(=O)Nc5ccc(F)cc5)CC4)cc3)c2cc1OC + CNCc1ccccc1-c1csc(C(C)Nc2nc(C)nc3cc(OC)c(OC)cc23)c1 . Is its viability, T/C strictly less than 1%?
[A] yes

###

Please respond with reported viability, T/C for every item in the list.
Tested on: LG0567-F671-PDC KRAS tumor spheroid viability
ASSAY_NAME: Anticancer human tumor LG0567-F671-PDC cell line growth inhibition [KRAS2];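 also: drug exposure lasted seven days after spheroids formed for three days; 100% = DMSO vehicle control viability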
RUN_CONDITIONS: second compound 10 µM; first compound 0.1 µM; hits give low values; spheroids with HUVEC and MSC
Numbers only here, please. The scale is %.

[Q] Item CC(C)NCC(C(=O)N1CCN(c2ncnc3c2C(C)CC3O)CC1)c1ccc(Cl)cc1 (stereo unspecified) + CC1OCC2(CCN(c3cnc(Sc4ccnc(N)c4Cl)c(N)n3)CC2)C1N : provide viability, T/C
[A] 7.98

[Q] Name the recorded viability, T/C of the compound listed here: COc1cc2nccc(Oc3ccc(NC(=O)C4(C(=O)Nc5ccc(F)cc5)CC4)cc3)c2cc1OC + C=CC(=O)N1CCN(c2nc(=O)n(-c3c(C)ccnc3C(C)C)c3nc(-c4c(O)cccc4F)c(F)cc23)C(C)C1
[A] 18.4

[Q] Return the recorded viability, T/C value; entry: CC(C)NCC(C(=O)N1CCN(c2ncnc3c2C(C)CC3O)CC1)c1ccc(Cl)cc1 (stereo unspecified) + COc1cc2nc(C)nc(NC(C)c3cc(N)cc(C(F)(F)F)c3)c2cc1OC1CCOC1
[A] 39.8

[Q] Provide measured viability, T/C value, entry: CC(=O)OC12COC1CC(O)C1(C)C(=O)C(O)C3=C(C)C(OC(=O)C(O)C(NC(=O)OC(C)(C)C)c4ccccc4)CC(O)(C(OC(=O)c4ccccc4)C21)C3(C)C (stereo unspecified) + C=CC(=O)N1CCN(c2nc(=O)n(-c3c(C)ccnc3C(C)C)c3nc(-c4c(O)cccc4F)c(F)cc23)C(C)C1
[A] 15.6

[Q] Indicate its recorded viability, T/C; the compound in question is COC(=O)c1ccc2c(C(=Nc3ccc(N(C)C(=O)CN4CCN(C)CC4)cc3)c3ccccc3)c(O)[nH]c2c1 + C=CC(=O)N1CCN(c2nc(=O)n(-c3c(C)ccnc3C(C)C)c3nc(-c4c(O)cccc4F)c(F)cc23)C(C)C1
[A] 24.4

[Q] Respond only with viability, T/C recorded for CC1OCC2(CCN(c3cnc(Sc4ccnc(N)c4Cl)c(N)n3)CC2)C1N (stereo unspecified) + COc1cc2nc(C)nc(NC(C)c3cc(N)cc(C(F)(F)F)c3)c2cc1OC1CCOC1
[A] 47.4

[Q] Indicate the recorded viability, T/C value for this compound: CC(=O)OC12COC1CC(O)C1(C)C(=O)C(O)C3=C(C)C(OC(=O)C(O)C(NC(=O)OC(C)(C)C)c4ccccc4)CC(O)(C(OC(=O)c4ccccc4)C21)C3(C)C (stereo unspecified) + COc1cc2nc(C)nc(NC(C)c3cc(N)cc(C(F)(F)F)c3)c2cc1OC1CCOC1
[A] 53.8

[Q] // fetch viability, T/C given entry CC1COCCN1c1cc(-c2ccnn2C)c2ccnc(-c3ccn[nH]3)c2n1 (stereo unspecified) + C=CC(=O)N1CCN(c2nc(=O)n(-c3c(C)ccnc3C(C)C)c3nc(-c4c(O)cccc4F)c(F)cc23)C(C)C1
[A] 15.5

[Q] Specify reported viability, T/C for the compound shown: CC1(C)CCC(CN2CCN(c3ccc(C(=O)NS(=O)(=O)c4ccc(NCC5CCOCC5)c([N+](=O)[O-])c4)c(Oc4cnc5[nH]ccc5c4)c3)CC2)=C(c2ccc(Cl)cc2)C1 + COc1cc2nc(C)nc(NC(C)c3cc(N)cc(C(F)(F)F)c3)c2cc1OC1CCOC1
[A] 76.5

[Q] Please list viability, T/C recorded for the compound COc1cc2nccc(Oc3ccc(NC(=O)C4(C(=O)Nc5ccc(F)cc5)CC4)cc3)c2cc1OC + CC1OCC2(CCN(c3cnc(Sc4ccnc(N)c4Cl)c(N)n3)CC2)C1N
[A] 9.16

[Q] Look up and report measured viability, T/C for this entry: CN(C)C/C=C/C(=O)Nc1cc2c(Nc3ccc(F)c(Cl)c3)ncnc2cc1O[C@H]1CCOC1 + COc1cc2nc(C)nc(NC(C)c3cc(N)cc(C(F)(F)F)c3)c2cc1OC1CCOC1
[A] 22.4
